// reported normalized growth for each item listed
- measurementNotes: chemical genetic growth profiling, strain panel (AID 1159580);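 note: tested at 20 µM; growth read once vehicle control cultures reached saturation at 30 °C; 1 = growth at the plate median or of vehicle wells; lower values mean less growth of the strain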
- conditionParameters: S. cerevisiae deletion strains, growth OD, locus YDL101C, strain DUN1, stronger effect = lower value
Hit rate of the full screen: of about 5,500 compounds, about 2,000 (36%) were called active. About 18% were inconclusive and are not listed. The list shows a part of the results.
parameter: normalized growth

{"molecule": "OC1=Cc2c(O)cc(O)cc2OC1(O)c1ccc(O)c(O)c1 (stereo not drawn)", "measuredNumber": 0.99}
{"molecule": "Cc1ccc(/C(N)=N\\O)cc1F", "measuredNumber": 1.01}
{"molecule": "S=P(N1CC1)(N1CC1)N1CC1", "measuredNumber": 1.01}
{"molecule": "FC(F)(F)c1cc(-n2c(CCc3nc(-c4ccc(Cl)cc4)no3)n[nH]c2=S)cc(C(F)(F)F)c1", "measuredNumber": 0.946}
{"molecule": "CCCC(C(=O)OCCN(CC)CC)(c1ccccc1)c1ccccc1", "measuredNumber": 1}
{"molecule": "O=C(NCc1nc(-c2ccc(C(F)(F)F)cc2)no1)Nc1ccc(F)cc1F", "measuredNumber": 0.975}
{"molecule": "COc1cc(OC)c2c3c1C(=O)c1c(OC)cc(C)c4c(OC)cc(c-3c14)C(C)(C)C2=O", "measuredNumber": 1.01}
{"molecule": "CCOC(=O)[C@H](CCc1ccccc1)N[C@@H](C)C(=O)N1Cc2ccccc2C[C@H]1C(=O)O", "measuredNumber": 1.01}
